# Lookup of reported GI50 keyed by entry
System: SK-MEL-2
Assay: NCI tumour cell line growth inhibition, 48 h
Calls of active or inactive are those of the source. Cut-off read from the data, not from the text of the source: active = GI50 up to about 1.1 µM and inactive = higher.

Reference set, count: 3
>>> recorded_measurement("O=c1[nH]c(=O)n(C2CC(O)C(CO)O2)cc1C(OCC(F)(F)F)OCC(F)(F)F (configuration not stated)")
"> 100 µM (inactive)"
>>> recorded_measurement("N#C/C(=C\\N1CCNC1=S)C(=O)c1ccc2ccccc2c1")
"> 100 µM (inactive)"
>>> recorded_measurement("NS(=O)(=O)c1ccc(NC(=S)N/C=C2\\C(=O)Oc3ccccc3C2=O)cc1")
"15.3 µM (inactive)"

Query (molecule): COC(=O)C1CCC(=O)N1C(c1cc(OC)c(OC)c(OC)c1)c1cccc2ccccc12 (configuration not stated) ; field requested: GI50
> 100 µM (inactive)

Query (molecule): COC(=O)C1(C)C=C(Nc2ccccc2)C(=O)N1c1ccccc1 (configuration not stated) ; field requested: GI50
> 100 µM (inactive)

Query (molecule): CCN(CC)CCOCCOCC1(c2ccc(Cl)c(Cl)c2)CCCCC1 ; field requested: GI50
14.9 µM (inactive)

Query (molecule): O=C(/C=C/c1cccc(Br)c1)c1cccs1 ; field requested: GI50
17.7 µM (inactive)

Query (molecule): COC(=O)[C@H]1CC(=O)C=C2CCCC21 (some centres not stated) ; field requested: GI50
> 100 µM (inactive)

Query (molecule): O=C(CC(=O)c1ccncc1)c1ccccc1 ; field requested: GI50
> 81.1 µM (inactive)

Query (molecule): C=C1C(=O)OC2(C)C3CCC(C3)C12 (configuration not stated) ; field requested: GI50
39.4 µM (inactive)

Query (molecule): O=[N+]([O-])/C(C(Cl)=C(Cl)Cl)=C1\NCCO1 ; field requested: GI50
> 100 µM (inactive)

###

# Lookup of reported GI50 keyed by entry
Tested on: M14
Test: NCI tumour cell line growth inhibition, 48 h
Calls of active or inactive are those of the source. Rule as the data show it: active = GI50 up to about 1.1 µM and inactive = higher.

Query (molecule): COc1ccc(/N=C2\C(=N/c3ccc(OC)cc3)N(c3ccccc3[N+](=O)[O-])C(=S)N2c2ccc(OC)cc2)cc1 ; field requested: GI50
> 100 µM (inactive)

Query (molecule): COc1ccc(C(=O)NC2=C(Cl)C(=O)c3ccccc3C2=O)cc1 ; field requested: GI50
1.05 µM (active)

Query (molecule): c1ccc([P+](CCCCCCCC[P+](c2ccccc2)(c2ccccc2)c2ccccc2)(c2ccccc2)c2ccccc2)cc1 ; field requested: GI50
35.6 µM (inactive)

Query (molecule): C[C@@H]1[C@@H](c2ccccc2)O[B-](c2ccccc2)(c2ccccc2)[N+]1(C)C ; field requested: GI50
34.5 µM (inactive)

###

Test system: DMS-273
Assay: NCI tumour cell line growth inhibition, 48 h
Active and inactive are the calls of the source. Cut-off read from the data, not from the text of the source: active = GI50 up to about 1.1 µM and inactive = higher.
Outcome (select one): active, inactive

>>> label_value("Cc1c2ccncc2cc2c1sc1ccncc12")
"inactive"

State the result this test recorded for O=c1/c(=C/c2ccc3c(c2)OCO3)sc2nnc(Cc3ccccc3)n12 .
inactive

State the result this test recorded for Cc1ccc(Nc2nc(-c3ccc(-c4ccc([N+](=O)[O-])cc4)o3)cs2)cc1 .
inactive

State the result this test recorded for CCOc1ccc(NC(=O)CC2SC(Nc3ccc(Cl)cc3)=NC2=O)cc1 (stereo not given) .
inactive

State the result this test recorded for COC(=O)[C@H]1CC(=O)C=C2CCCC21 (stereo not given in full) .
inactive

State the result this test recorded for Oc1ccc2c(c1)CC[N+]1=C2CCC2CCCC21 (stereo not given) [QUINDONIUM BROMIDE] .
inactive

State the result this test recorded for Cc1c(CC/C(=N\Nc2ccc([N+](=O)[O-])cc2[N+](=O)[O-])c2ccccc2)c2ccccc2n1C .
inactive

State the result this test recorded for Cc1cc(Br)ccc1NC1=CC(=O)C(=O)c2ccccc21 .
inactive

State the result this test recorded for COc1ccc(N2C(=O)/C(=C/c3ccc(N(CCC#N)CCC#N)cc3C)N=C2c2cc([N+](=O)[O-])ccc2Cl)cc1 .
inactive

State the result this test recorded for COc1ccc(/C=C2\CCCCC2=O)cc1 .
inactive

State the result this test recorded for Cc1cc(N(CCC#N)CCC#N)ccc1/C=C/C(=O)Nc1cccc(Cl)c1 .
inactive

###

Test system: HCT-15
Metric: GI50

Reference set, count: 6
>>> recorded_measurement("CCc1cccc(C(C)CC)c1NC(=O)C(=O)C(CC(=O)Nc1ccc(Cl)c(Cl)c1)C(=O)OC (stereo not drawn)")
"20.2 µM"
>>> recorded_measurement("O=C(Nc1ccc(Cl)cc1)NS(=O)(=O)c1coc2ccccc2c1=O")
"> 10 µM"
>>> recorded_measurement("Cc1cc(C)n(C(=C(C(Cl)=C(Cl)Cl)[N+](=O)[O-])n2nc(C)cc2C)n1")
"3.2 µM"
>>> recorded_measurement("CC(CC[C@@H](O)C(C)(C)O)C1[C@@H](O)CC2(C)C3CC(O)C4C(C)(C)[C@@H](OC5OC(CO)C(O)C(O)C5O)CC[C@@]45C[C@@]35CC[C@]12C (stereo partly drawn)")
"> 10 µM"
>>> recorded_measurement("C[C@H](CS)C(=O)N1c2ccccc2C[C@H]1C(=O)O")
"> 100 µM"
>>> recorded_measurement("O=c1[nH]c(=O)n(C2CC(O)C(CO)O2)cc1OCC1CCCCC1 (stereo not drawn)")
"> 100 µM"

Would you kindly look at the next entry?
Request - read-out GI50 | tested on HCT-15 | molecule COc1ccccc1-c1cc(O)c2cccnc2n1
23.7 µM

###

# Lookup of reported GI50 keyed by entry
System: OVCAR-8
Experiment: NCI tumour cell line growth inhibition, 48 h
Activity calls are given as the source filed them. Cut-off read from the data, not from the text of the source: active = GI50 up to about 1.1 µM and inactive = higher.

>>> recorded_measurement("O=c1/c(=C/c2ccc3c(c2)OCO3)sc2nnc(Cc3ccccc3)n12")
"> 100 µM (inactive)"

Query (molecule): O=C(N1CCOCC1)C1(c2ccccc2)CCNCC1 ; field requested: GI50
> 100 µM (inactive)

Query (molecule): CN(N)/N=N/c1[nH]cnc1C(N)=O ; field requested: GI50
3.14 µM (inactive)

Query (molecule): CC(=O)OCC1C(C(C)OC(C)=O)CCC2C1CCC1(C)C(OC(C)=O)CCC21 (centres undefined) ; field requested: GI50
19.7 µM (inactive)

Query (molecule): COc1cc(/C=C2\C(=O)N(c3cccc(Cl)c3)C(c3ccccc3)S2(=O)=O)cc(OC)c1OC (centres undefined) ; field requested: GI50
86.7 µM (inactive)

Query (molecule): Cc1cc(S(=O)(=O)Nc2nnc3c(C(F)(F)F)cc(Cl)cn23)c(S)cc1Cl ; field requested: GI50
> 100 µM (inactive)

Query (molecule): N=C(N)NS(=O)(=O)c1ccc(NC(=O)c2cccc3c(Nc4ccc(S(=O)(=O)N=C(N)N)cc4)c4ccc(Cl)cc4nc23)cc1 ; field requested: GI50
61.2 µM (inactive)

Query (molecule): CCOC(=O)NNC(=O)NC12CC3CC(CC(C3)C1)C2 ; field requested: GI50
> 100 µM (inactive)

Query (molecule): Cc1cc(CC(O)c2ccc(Cl)c(Cl)c2)nc(O)n1 (centres undefined) ; field requested: GI50
46.1 µM (inactive)

Query (molecule): O=C(NC(=O)c1c(Cl)nc2sccn12)Nc1ccc(Cl)cc1 ; field requested: GI50
52.6 µM (inactive)

Query (molecule): O=c1[nH]c(=O)n(C2CC(O)C(CO)O2)cc1OCC1CCCCC1 (centres undefined) ; field requested: GI50
> 100 µM (inactive)

###

Tested on: RPMI-8226
Assay: NCI tumour cell line growth inhibition, 48 h
Activity calls are given as the source filed them. Rule as the data show it: active = GI50 up to about 1.1 µM and inactive = higher.
# Lookup of reported GI50 keyed by entry

Request - read-out GI50 | tested on RPMI-8226 | compound Cc1cc(C)c2c(c1)C/C(=C\c1cccc(C)c1C(=O)O)C2=O
68.5 µM (inactive)

Request - read-out GI50 | tested on RPMI-8226 | compound COC(=O)[C@H]1CC(=O)C=C2CCCC21 (stereo partly specified)
> 100 µM (inactive)

Request - read-out GI50 | tested on RPMI-8226 | compound COc1ccc(N2C(=O)/C(=C/c3ccc(N(CCC#N)CCC#N)cc3C)N=C2c2cc([N+](=O)[O-])ccc2Cl)cc1
4.18 µM (inactive)

Request - read-out GI50 | tested on RPMI-8226 | compound C=CCC1(C)CCCCC1(O)C[S+]([O-])c1ccccc1 (stereo unspecified)
33.7 µM (inactive)

Request - read-out GI50 | tested on RPMI-8226 | compound COC(=O)c1cc2c(cc1C(=O)OC)[C@@]1(C)CCCC(C)(C)C1CC2 (stereo partly specified)
10.7 µM (inactive)

Request - read-out GI50 | tested on RPMI-8226 | compound Cc1c(CC/C(=N\Nc2ccc([N+](=O)[O-])cc2[N+](=O)[O-])c2ccccc2)c2ccccc2n1C
20.7 µM (inactive)

Request - read-out GI50 | tested on RPMI-8226 | compound O=c1cc(N2CCCC2)[nH]c(=O)n1-c1ccc(F)cc1
> 100 µM (inactive)
